Provenance of the data: the supplement of paper PMC10567573

B1: PHTF1 (parent)
chain: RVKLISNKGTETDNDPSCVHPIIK

- Variants of: B1
- METHOD_DESCRIPTION: protein stability index of a GFP-peptide fusion (GPS, HEK-293T) (PSI 1-6); higher = more stable;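 further: lentivirally expressed fusions sorted by FACS into six bins by GFP to DsRed ratio, PSI derived from sequencing read proportions per bin multiplied by bin number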
- CONDITION_SUMMARY: c terminus: a fixed tail appended
MEASURED_METRIC: protein stability index
Lab note: record the figure alone, no unit after it.

Worked set:
[
  {
    "MUTATION_ID": "P16W",
    "OBSERVED_MEASUREMENT": 2.37
  },
  {
    "MUTATION_ID": "N7L",
    "OBSERVED_MEASUREMENT": 3.36
  },
  {
    "MUTATION_ID": "L4Y",
    "OBSERVED_MEASUREMENT": 3.77
  },
  {
    "MUTATION_ID": "N14I",
    "OBSERVED_MEASUREMENT": 3.06
  },
  {
    "MUTATION_ID": "K24A",
    "OBSERVED_MEASUREMENT": 3.54
  }
]

The recorded protein stability index for `E11N` is 4.04

Value of measured protein stability index for the entry `R1L` : 3.51

Value of protein stability index reported for the variant `T10L` is 3.38

// `D15H` : protein stability index value = 3.64

Given item `H20F` , the value recorded as its protein stability index is 3.42

Form field protein stability index, entry `T10M` : 3.98

# protein stability index (variant: `E11A` ) is 4.04

Entry `N7Y` , protein stability index reported as 3.32

According to the records, this variant `S6G` displays protein stability index of 4.38

Lab note: `N7S` gave protein stability index of 4.22

What the record says about `H20R` : protein stability index is 4.26

Value of protein stability index reported for the variant `L4H` is 4.27

Reported protein stability index of `S17P` : 4.41

Record `T12F` . Reported protein stability index: 3.67

Noted for `G9A` : its protein stability index reads 4.12

protein stability index recorded for this variant, `H20E` , is 4.76

get_value(item= `K24P` , readout=protein stability index) returns 4.27

Field protein stability index (entry `K3G` ) reads 4.31

protein stability index reading for `P16A` : 3.98
